# TEST DETAILS: Metabolic stability, human liver microsomes
# CONDITION DESCRIPTION: human, microsomes, pH 7.4
EXPERIMENTAL ENDPOINT: remaining at 0.25 h, 1 μM (%)
Give the value, in units of %, as a plain number.

The value of remaining at 0.25 h, 1 μM measured for the compound C[C@]12CC[C@H]3[C@@H](CCC4=CC(=O)CC[C@@]43C)[C@@H]1CC[C@@H]2O [Testosterone, testosterone, reference compound] turned out to be 77

* * *

# TEST DETAILS: Metabolic stability, monkey liver microsomes
# CONDITION DESCRIPTION: monkey, microsomes, pH 7.4
EXPERIMENTAL ENDPOINT: remaining at 0.25 h, 1 μM (%)
Output spec: scalar in %, unitless text.

Input C[C@]12CC[C@H]3[C@@H](CCC4=CC(=O)CC[C@@]43C)[C@@H]1CC[C@@H]2O [Testosterone, testosterone, reference compound] . Output remaining at 0.25 h, 1 μM: 34
